Target: Serine/threonine-protein kinase Nek7 (Homo sapiens) (UniProt Q8TDX7);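 note: reported values are mean inhibition of NEK7 from the GSK PKIS kinase screening panel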
Sequence (Q8TDX7 whole entry, looked up): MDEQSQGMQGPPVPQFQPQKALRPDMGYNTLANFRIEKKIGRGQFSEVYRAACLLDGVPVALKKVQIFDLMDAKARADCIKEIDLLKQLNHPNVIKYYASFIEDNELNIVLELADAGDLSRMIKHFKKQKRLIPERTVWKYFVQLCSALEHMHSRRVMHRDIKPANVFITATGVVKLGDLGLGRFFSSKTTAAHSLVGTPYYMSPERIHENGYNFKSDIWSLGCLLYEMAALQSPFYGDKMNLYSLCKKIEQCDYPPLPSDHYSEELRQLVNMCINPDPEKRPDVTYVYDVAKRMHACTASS
Settings: at 1 µM
Measured inhibition, listed per entry for reference.

[
  {
    "MOLECULE": "COc1cc(N2CCN(C(C)C)CC2)ccc1Nc1nc(Nc2cccc(F)c2C(=O)O)c2cc[nH]c2n1",
    "inhibition, %": 3.43
  },
  {
    "MOLECULE": "O=C1Nc2ccccc2/C1=C1\\CCc2cc(O)ccc21",
    "inhibition, %": 4.31
  },
  {
    "MOLECULE": "CCCNc1cccc(-n2ncc3c(N/N=C/c4ccncc4)ncnc32)c1",
    "inhibition, %": -0.91
  },
  {
    "MOLECULE": "COc1cc(N2CCN(C(C)C)CC2)ccc1Nc1nc(Nc2cccc3ncccc23)c2cc[nH]c2n1",
    "inhibition, %": -0.41
  },
  {
    "MOLECULE": "CCS(=O)(=O)c1ccc(OC)c(Nc2ncc(-c3cccc(C(C)=O)c3)o2)c1",
    "inhibition, %": 3.24
  },
  {
    "MOLECULE": "CC1=C(C(=O)Nc2ccc3[nH]ncc3c2)C(c2ccc(F)cc2)N=C(c2ccc(C(F)(F)F)nc2)N1 (centres undefined)",
    "inhibition, %": 2.92
  },
  {
    "MOLECULE": "Cc1cc(O)cc(C)c1/C=C/c1cncc(C(=O)OC(C)(C)C)c1",
    "inhibition, %": 3.53
  },
  {
    "MOLECULE": "COc1ccccc1-c1cc(/C=C2\\C(=O)Nc3ncc(Br)cc32)cc(Br)c1O",
    "inhibition, %": 3.62
  },
  {
    "MOLECULE": "CC1(C)CC(n2cnc(-c3ccc(F)cc3)c2-c2ccnc(N)n2)CC(C)(C)N1",
    "inhibition, %": 1.39
  },
  {
    "MOLECULE": "COC(=O)Nc1nc2ccc(Oc3ccc(NC(=O)Nc4cc(C(F)(F)F)ccc4F)cc3)cc2s1",
    "inhibition, %": 0.53
  },
  {
    "MOLECULE": "NS(=O)(=O)c1ccc(N/N=C2\\C(=O)Nc3ccc(C(=O)NCc4ccncc4)cc32)cc1",
    "inhibition, %": 4.4
  },
  {
    "MOLECULE": "CCN1CCC(C(=O)Nc2n[nH]c3nnc(-c4cccc(F)c4F)cc23)CC1",
    "inhibition, %": -1.15
  },
  {
    "MOLECULE": "CN(c1ccc(NC(=O)NCCN2CCOCC2)cc1)c1ccnc(Nc2ccc(CS(C)(=O)=O)cc2)n1",
    "inhibition, %": 3.17
  },
  {
    "MOLECULE": "COc1ccc2ncn(-c3cc(O[C@H](C)c4ccccc4C(F)(F)F)c(C(N)=O)s3)c2c1",
    "inhibition, %": 0.51
  },
  {
    "MOLECULE": "Cc1cc(O)cc(C)c1/C=C/c1cncc(C(N)=O)c1",
    "inhibition, %": 3.89
  },
  {
    "MOLECULE": "O=C(O[C@H]1CN[C@H](C#Cc2cc3ncnc(Nc4ccc5c(ccn5Cc5cc(F)ccc5F)c4)c3s2)C1)N1CCOCC1",
    "inhibition, %": 3.63
  },
  {
    "MOLECULE": "OCCCNc1nccc(-c2c(-c3ccc(F)cc3)nn3cc(C(F)(F)F)ccc23)n1",
    "inhibition, %": -4.27
  },
  {
    "MOLECULE": "COC(=O)Nc1nc2cc(Oc3ccc(NC(=O)Nc4ccccc4)cc3)ccc2[nH]1",
    "inhibition, %": 1.72
  },
  {
    "MOLECULE": "CC1=C(C(=O)Nc2ccc3[nH]nc(C)c3c2)C(c2ccc(C(F)(F)F)cc2)CC(=O)N1 (centres undefined)",
    "inhibition, %": 2.74
  }
]
